Relative IC50 to Polypeptide_29 values, listed per item
- experimental system: human IL-6 (mature hIL-6) (human, UniProt P05231 30-212)
- Sequence (P05231 30-212): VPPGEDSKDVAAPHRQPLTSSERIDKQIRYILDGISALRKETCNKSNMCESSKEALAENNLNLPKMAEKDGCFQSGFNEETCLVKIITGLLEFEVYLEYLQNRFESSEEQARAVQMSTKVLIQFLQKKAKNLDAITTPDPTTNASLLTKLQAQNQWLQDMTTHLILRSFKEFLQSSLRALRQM
- assay name: cell-based or functional assay
quantity measured: Relative IC50 to Polypeptide_29

binder	quantity measured	value reported
Compound 19 (VHH, Chem. 27 (C20 fatty acid substituent) on Cys in position 4 and on Cys in position 6 of the extension (SEQ ID NO: 162)) VHH: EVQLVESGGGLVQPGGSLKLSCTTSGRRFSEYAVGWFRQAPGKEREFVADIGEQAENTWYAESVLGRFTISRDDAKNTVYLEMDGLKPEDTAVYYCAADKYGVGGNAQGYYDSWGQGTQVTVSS	Relative IC50 to Polypeptide_29	1.1 fold
Compound 16 (VHH, Chem. 27 (C20 fatty acid substituent) on Cys in position 4 of the extension (SEQ ID NO: 161)) VHH: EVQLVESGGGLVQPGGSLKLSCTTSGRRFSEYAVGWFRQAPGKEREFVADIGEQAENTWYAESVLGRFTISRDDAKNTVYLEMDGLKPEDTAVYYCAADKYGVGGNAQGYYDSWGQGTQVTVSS	Relative IC50 to Polypeptide_29	1.6 fold
Compound 15 (VHH, Chem. 26 (C18 fatty acid substituent) on Cys in position 4 of the extension (SEQ ID NO: 161)) VHH: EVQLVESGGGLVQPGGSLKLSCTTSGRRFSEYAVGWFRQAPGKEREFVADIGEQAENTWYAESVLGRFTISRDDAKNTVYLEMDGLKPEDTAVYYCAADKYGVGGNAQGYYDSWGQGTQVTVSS	Relative IC50 to Polypeptide_29	1.3 fold
